tested on: Escherichia coli TOP10; assay: shrunken log2 fold change of peptide-encoding DNA abundance (4.5 h post-induction vs induction); higher = less antimicrobial activity (less host growth inhibition); details: time post-induction: 4.5 h; library: site-saturation at positions 5, 18, 19, 20
READOUT NAME: shrunken log2 fold change
Lab note: jot down the number only; don't add units.

In the examples that follow, each entry is paired with its recorded shrunken log2 fold change.
1. RRIRCRPPRLPRPRPRPNICPRP	-0.488
2. RRIRCRPPRLPRPRPRPKLVPRP	-0.152
3. RRIRCRPPRLPRPRPRPKSLPRP	-0.191
4. RRIRGRPPRLPRPRPRPDIRPRP	0.454
5. RRIRCRPPRLPRPRPRPEITPRP	0.0771
6. RRIRNRPPRLPRPRPRPVGIPRP	-0.2
7. RRIRERPPRLPRPRPRPISFPRP	-0.441
8. RRIRLRPPRLPRPRPRPILVPRP	-0.157

Q: Provide value of shrunken log2 fold change for this record tested with Escherichia coli TOP10: "RRIRGRPPRLPRPRPRPKKCPRP"
Ans: 0.544

Q: Hello, I am looking for reported shrunken log2 fold change with Escherichia coli TOP10 for "RRIRKRPPRLPRPRPRPVYRPRP" . Could you help?
Ans: -0.667

Q: Recall the recorded shrunken log2 fold change for "RRIRWRPPRLPRPRPRPYKFPRP" with Escherichia coli TOP10 and state it.
Ans: -0.22

Q: Hello, I am looking for reported shrunken log2 fold change with Escherichia coli TOP10 for "RRIRGRPPRLPRPRPRPIALPRP" . Could you help?
Ans: 0.16

Q: Please provide the recorded shrunken log2 fold change for "RRIRERPPRLPRPRPRPPSDPRP" , tested on Escherichia coli TOP10.
Ans: 0.0848

Q: Query the reported shrunken log2 fold change for Escherichia coli TOP10; item: "RRIRKRPPRLPRPRPRPIICPRP"
Ans: -0.0679

Q: Return shrunken log2 fold change measured with Escherichia coli TOP10 given this sequence: "RRIRLRPPRLPRPRPRPYFNPRP"
Ans: -1.13

Q: Give recorded shrunken log2 fold change with Escherichia coli TOP10 for the following sequence: "RRIRKRPPRLPRPRPRPSCPPRP"
Ans: -0.0238

Q: Request: shrunken log2 fold change, test system Escherichia coli TOP10, entry "RRIRFRPPRLPRPRPRPLCHPRP"
Ans: -0.271

Q: # query: shrunken log2 fold change | item "RRIRPRPPRLPRPRPRPTRTPRP" | system: Escherichia coli TOP10
Ans: 0.508

Q: Give the reported shrunken log2 fold change for "RRIRERPPRLPRPRPRPLATPRP" (system: Escherichia coli TOP10).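 Note: peptides expressed intracellularly from a pBAD plasmid library in pooled LB shake-flask culture, induced with 0.3% L-arabinose, DNA abundance read by NGS, three biological replicates, DESeq2 with apeglm shrinkage.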
Ans: 0.133
